experiment: Inhibition of TNF-alpha-induced NFkappaB activation in human HEK293 cells after 6 hrs by luciferase assay; assay type: cell-based; settings: HEK293, 6 h
Hi there, I'd appreciate the recorded pIC50 for every entry that follows.
Answers are plain numbers, as −log10 of the molar value.

The following molecules have reported results that may help.
COC(=O)[C@H]1Cc2c([nH]c3ccccc23)CN1C(=O)NC(C)C
4.67
COC(=O)[C@@H]1Cc2c([nH]c3ccccc23)CN1C(=O)NC12CC3CC(CC(C3)C1)C2
4.99
COC(=O)[C@@H]1Cc2c([nH]c3ccccc23)CN1
4.41

For every listed record, write down its pIC50.
1. Cc1ccc(S(=O)(=O)N[C@@H](Cc2ccccc2)C(=O)CCl)cc1
2. COC(=O)[C@H]1Cc2c([nH]c3ccccc23)CN1
3. COC(=O)[C@@H]1Cc2c([nH]c3ccccc23)CN1Cc1ccccc1

[5.31, 4.66, 4.51]
